# collection of Ki values tested on D(3) dopamine receptor (Homo sapiens, UniProt P35462)
# Sequence (P35462 whole entry): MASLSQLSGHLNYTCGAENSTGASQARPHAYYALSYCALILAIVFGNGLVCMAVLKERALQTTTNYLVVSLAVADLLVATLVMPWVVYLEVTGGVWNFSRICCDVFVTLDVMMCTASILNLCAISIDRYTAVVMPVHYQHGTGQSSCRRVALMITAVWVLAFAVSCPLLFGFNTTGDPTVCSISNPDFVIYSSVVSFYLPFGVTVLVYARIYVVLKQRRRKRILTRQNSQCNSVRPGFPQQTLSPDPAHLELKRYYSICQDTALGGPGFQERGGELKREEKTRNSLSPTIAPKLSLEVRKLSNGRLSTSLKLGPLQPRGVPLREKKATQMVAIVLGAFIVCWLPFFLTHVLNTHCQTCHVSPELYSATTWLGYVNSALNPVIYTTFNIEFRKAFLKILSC
Quantity name: Ki (nM)

Structure smiles string: O=C(NCCCCN1CCN(c2cccc(F)c2F)CC1)c1cc2ccc1CCc1ccc(cc1)CC2
Assay system: D(3) dopamine receptor (Homo sapiens, UniProt P35462)
Observed value: 1.9
//
Structure smiles string: COc1c(Cl)cccc1N1CCN(CCCCNC(=O)c2cc3ccc2CCc2ccc(cc2)CC3)CC1
Assay system: D(3) dopamine receptor (Homo sapiens, UniProt P35462)
Observed value: 0.46
//
Structure smiles string: COc1ccccc1N1CCN(CCCCNC(=O)c2cc3c4ccc(c3o2)CCc2ccc(cc2)CC4)CC1
Assay system: D(3) dopamine receptor (Homo sapiens, UniProt P35462)
Observed value: 16

----------
The following molecules are shown together with reported pKi values.
- Assay system: D(2) dopamine receptor (Homo sapiens, UniProt P14416)
- Sequence (P14416 whole entry): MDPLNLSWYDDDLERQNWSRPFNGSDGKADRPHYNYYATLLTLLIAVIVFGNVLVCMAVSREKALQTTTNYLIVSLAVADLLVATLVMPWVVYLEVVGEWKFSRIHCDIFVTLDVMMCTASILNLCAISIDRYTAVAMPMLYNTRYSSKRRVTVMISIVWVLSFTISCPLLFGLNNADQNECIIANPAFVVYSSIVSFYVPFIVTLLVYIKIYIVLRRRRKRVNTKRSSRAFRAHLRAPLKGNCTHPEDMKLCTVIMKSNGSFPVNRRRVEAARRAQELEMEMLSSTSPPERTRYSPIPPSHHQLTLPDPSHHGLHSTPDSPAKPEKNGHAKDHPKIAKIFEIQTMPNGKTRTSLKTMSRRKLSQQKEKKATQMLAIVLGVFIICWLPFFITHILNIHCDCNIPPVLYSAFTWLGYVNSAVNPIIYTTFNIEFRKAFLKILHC
- Test protocol: biochemical
- Description: Displacement of [3H]spiperone from human D2 short receptor expressed in CHO cells
pKi: −log10 of the molar value.
Quantity name: pKi

Structure smiles string: COc1c(Cl)cccc1N1CCN(CCCCNC(=O)c2cc3ccc2CCc2ccc(cc2)CC3)CC1
Quantity name: pKi
Observed value: 7.55
--
Structure smiles string: O=C(NCCCCN1CCN(c2cccc(Cl)c2Cl)CC1)c1cc2ccc1CCc1ccc(cc1)CC2
Quantity name: pKi
Observed value: 6.85
--
Structure smiles string: O=C(NCCCCN1CCN(c2cccc(F)c2F)CC1)c1cc2ccc1CCc1ccc(cc1)CC2
Quantity name: pKi
Observed value: 7.46

----------
The following compounds are shown together with reported Ki values.
- Assay system: D(2) dopamine receptor (Homo sapiens, UniProt P14416)
- Test protocol: biochemical
- Description: Displacement of [3H]spiperone from human D2 long receptor expressed in CHO cells

Structure smiles string: COc1ccccc1N1CCN(CCCCNC(=O)c2cc3c4ccc(c3o2)CCc2ccc(cc2)CC4)CC1
Assay system: D(2) dopamine receptor (Homo sapiens, UniProt P14416)
Ki / nM: 170
//
Structure smiles string: COc1c(Cl)cccc1N1CCN(CCCCNC(=O)c2cc3ccc2CCc2ccc(cc2)CC3)CC1
Assay system: D(2) dopamine receptor (Homo sapiens, UniProt P14416)
Ki / nM: 42
//
Structure smiles string: O=C(NCCCCN1CCN(c2cccc(Cl)c2Cl)CC1)c1cc2ccc1CCc1ccc(cc1)CC2
Assay system: D(2) dopamine receptor (Homo sapiens, UniProt P14416)
Ki / nM: 220

----------
Target sequence: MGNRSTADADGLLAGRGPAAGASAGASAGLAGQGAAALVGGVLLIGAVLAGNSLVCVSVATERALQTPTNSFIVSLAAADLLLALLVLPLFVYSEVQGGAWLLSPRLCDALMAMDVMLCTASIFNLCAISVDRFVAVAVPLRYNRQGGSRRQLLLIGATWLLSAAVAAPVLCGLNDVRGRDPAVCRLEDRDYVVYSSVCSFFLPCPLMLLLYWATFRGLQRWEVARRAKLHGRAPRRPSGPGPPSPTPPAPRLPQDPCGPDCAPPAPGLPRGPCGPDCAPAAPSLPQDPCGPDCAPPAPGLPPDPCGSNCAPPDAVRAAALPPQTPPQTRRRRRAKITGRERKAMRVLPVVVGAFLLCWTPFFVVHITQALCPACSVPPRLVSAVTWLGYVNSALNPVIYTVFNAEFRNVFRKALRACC

Structure smiles string: COc1ccccc1N1CCN(CCCCNC(=O)c2cc3c4ccc(c3o2)CCc2ccc(cc2)CC4)CC1
Value units: nM
Ki: 140
--
Structure smiles string: O=C(NCCCCN1CCN(c2cccc(Cl)c2Cl)CC1)c1cc2ccc1CCc1ccc(cc1)CC2
Value units: nM
Ki: 120
